system: Potassium voltage-gated channel subfamily KQT member 2 (Rattus norvegicus) (UniProt O88943)
Sequence (O88943 whole entry, looked up): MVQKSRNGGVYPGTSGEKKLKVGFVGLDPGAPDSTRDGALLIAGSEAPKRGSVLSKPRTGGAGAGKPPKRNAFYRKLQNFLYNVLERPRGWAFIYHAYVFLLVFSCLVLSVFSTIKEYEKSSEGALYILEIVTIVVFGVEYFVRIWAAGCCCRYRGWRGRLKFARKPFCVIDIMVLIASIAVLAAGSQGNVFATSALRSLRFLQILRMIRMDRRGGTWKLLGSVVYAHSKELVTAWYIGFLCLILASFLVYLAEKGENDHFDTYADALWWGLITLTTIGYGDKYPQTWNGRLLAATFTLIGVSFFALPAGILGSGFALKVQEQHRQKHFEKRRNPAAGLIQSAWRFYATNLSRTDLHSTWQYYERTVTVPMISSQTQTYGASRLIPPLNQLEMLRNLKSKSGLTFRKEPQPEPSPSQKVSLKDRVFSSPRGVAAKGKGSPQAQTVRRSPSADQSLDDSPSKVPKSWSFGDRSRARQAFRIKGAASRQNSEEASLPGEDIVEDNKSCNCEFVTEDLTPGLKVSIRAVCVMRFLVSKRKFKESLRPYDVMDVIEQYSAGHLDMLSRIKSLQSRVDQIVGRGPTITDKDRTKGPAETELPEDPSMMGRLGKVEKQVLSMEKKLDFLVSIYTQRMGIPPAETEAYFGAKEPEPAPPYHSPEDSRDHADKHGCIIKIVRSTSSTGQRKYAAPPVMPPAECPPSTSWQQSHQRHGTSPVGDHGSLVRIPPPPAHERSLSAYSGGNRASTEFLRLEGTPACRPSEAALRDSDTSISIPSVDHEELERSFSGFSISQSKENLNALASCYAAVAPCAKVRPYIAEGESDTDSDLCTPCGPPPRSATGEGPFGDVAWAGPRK
experimentalProtocol: rat KCNQ2 channel potentiation, selectivity assay for KCNQ1 potentiator project, KCNQ2-CHO-K1 cells (AID 493009);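 further: assay conditions were tuned for KCNQ1 rather than KCNQ2 modulators; signal is max minus min fluorescence divided by baseline after thallium stimulus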
testConditions: FluxOR thallium flux fluorescence, at 10 µM, scaled: buffer 0, activator control 100
Active and inactive are the calls of the source.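 How the source made its calls: active means mean duplicate potentiation above the buffer control mean plus 5 SD of buffer wells; inactive means the rest.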
Bench note: report the call from active, inactive

| querySmiles | classification |
| --- | --- |
| O=C(Nc1nnc(-c2ccc(Cl)cc2)o1)c1ccccc1Br | active |
| CCCCn1c(N)c(N(CC)C(=O)CSCc2c(C)noc2C)c(=O)[nH]c1=O | inactive |
| Cc1ccccc1C(=O)NC1CC(C)(C)NC(C)(C)C1 | inactive |

Qu. Name the outcome recorded for CCCCOC(=O)c1ccc(NC(=S)NC(=O)c2c(Cl)cnn2C)cc1 in the assay.
Ans. active

Qu. Name the outcome recorded for COC(=O)c1ccc(CNC(=O)c2ccc(COc3ccccc3)cc2)cc1 in the assay.
Ans. inactive

Qu. Name the outcome recorded for CN(Cc1cn[nH]c1-c1ccc2c(c1)OCO2)C1CCOCC1 in the assay.
Ans. inactive
